# test-summary: physchem
# measurement-setup: 50 °C, organic solvent or mixture, thermodynamic from solid
value-type: solubility at 5 days (mg/mL)
Give the number; mg/mL is assumed, so skip it.

Ask | Give its solubility at 5 days value. Item: O=C(O[C@H](C(=O)O)[C@H](OC(=O)c1ccccc1)C(=O)O)c1ccccc1 [DBTA, (+)-2,3-dibenzoyl-D-tartaric acid]
Reply | 88

====

# test-summary: physchem
# measurement-setup: 30 °C, organic solvent or mixture, thermodynamic from solid
value-type: solubility at 5 days (mg/mL)
Answer format: numeric, mg/mL implied, no suffix.

Ask | Which solubility at 5 days is listed for O=C(O[C@H](C(=O)O)[C@H](OC(=O)c1ccccc1)C(=O)O)c1ccccc1 [DBTA, (+)-2,3-dibenzoyl-D-tartaric acid] ?
Reply | 100

====

# test-summary: physchem
# measurement-setup: 40 °C, organic solvent or mixture, thermodynamic from solid
value-type: solubility at 5 days (mg/mL)
Kindly provide the numeric value in mg/mL only, without the unit symbol.

Ask | // solubility at 5 days lookup, key: O=C(O[C@H](C(=O)O)[C@H](OC(=O)c1ccccc1)C(=O)O)c1ccccc1 [DBTA, (+)-2,3-dibenzoyl-D-tartaric acid]
Reply | 98.9

====

# test-summary: physchem
# measurement-setup: 65 °C, organic solvent or mixture, thermodynamic from solid
value-type: solubility at 5 days (mg/mL)
Your answer is read as mg/mL, so omit the unit and give the number.

Ask | Requested read-out: solubility at 5 days. Entry: O=C(O[C@H](C(=O)O)[C@H](OC(=O)c1ccccc1)C(=O)O)c1ccccc1 [DBTA, (+)-2,3-dibenzoyl-D-tartaric acid]
Reply | 96.1

====

# test-summary: physchem
# measurement-setup: 60 °C, organic solvent or mixture, thermodynamic from solid
value-type: solubility at 5 days (mg/mL)
Express it in mg/mL; write the number only.

Ask | // lookup solubility at 5 days for O=C(O[C@H](C(=O)O)[C@H](OC(=O)c1ccccc1)C(=O)O)c1ccccc1 [DBTA, (+)-2,3-dibenzoyl-D-tartaric acid]
Reply | 105
